Reference source for all entries: patent US8236792B2

Each entry below lists one item and its recorded pKi value.
TARGET_DESC: human H3 receptor (Homo sapiens, UniProt Q9Y5N1)
Sequence (Q9Y5N1 whole entry): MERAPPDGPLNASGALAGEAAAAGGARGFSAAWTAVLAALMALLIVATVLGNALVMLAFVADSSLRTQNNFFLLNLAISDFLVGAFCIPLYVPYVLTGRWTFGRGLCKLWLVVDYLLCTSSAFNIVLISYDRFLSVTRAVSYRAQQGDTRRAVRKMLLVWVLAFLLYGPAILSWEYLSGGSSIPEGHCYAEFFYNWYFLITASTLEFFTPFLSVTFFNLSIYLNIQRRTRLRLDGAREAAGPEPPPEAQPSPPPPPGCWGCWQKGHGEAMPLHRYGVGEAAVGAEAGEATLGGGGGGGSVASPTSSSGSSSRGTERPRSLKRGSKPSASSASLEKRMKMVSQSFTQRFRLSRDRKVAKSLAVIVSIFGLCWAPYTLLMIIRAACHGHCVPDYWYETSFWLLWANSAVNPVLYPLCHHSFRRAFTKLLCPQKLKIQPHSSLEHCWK
ASSAY_PROCEDURE: H3 Receptor Binding (Human) Method 2, [125I]-iodoproxyfan competitive radioligand binding
Parameters: expressed in transfected cells
EXPERIMENTAL_CONTEXT: read-out: Human H3 Ki
Here pKi is given on a logarithmic scale as minus log10 of the concentration in mol/L.

CC(C)(C)OC(=O)N1C[C@@H](Oc2ccc(F)cc2)C[C@@H]1C(=O)N1CCCN(C2CC2)CC1 :: 7.82
CCC(=O)N1C[C@@H](Oc2cccc(F)c2)C[C@@H]1C(=O)N1CCCN(C2CCC2)CC1 :: 8.52

Sample O=C([C@H]1C[C@H](OCc2ccc(F)cc2)CN1)N1CCCN(C2CCC2)CC1 — what was its pKi?
8.52

Can you share its pKi? I mean this compound: O=C(N1CCCN(C2CCC2)CC1)[C@@]1(Cc2ccc(F)cc2)CCCN1
7.57

* * *

TARGET_DESC: human H3 receptor (Homo sapiens)
ASSAY_PROCEDURE: H3 Receptor Binding (Human) Method 2, [125I]-iodoproxyfan competitive radioligand binding
Design: expressed in transfected cells
EXPERIMENTAL_CONTEXT: Method 2; SK-N-MC cell membranes; [125I]-iodoproxyfan 1 nM; apparent Ki; free base or hydrochloride salt; average of results; read-out: Human H3 Ki
METRIC_NAME: Ki (nM)
Record the value in nM, omitting the unit from your answer.

Consider the following illustrative entries.
O=C(N1CCCN(C2CCC2)CC1)[C@@]1(Cc2ccccc2)CCCN1 :: 11
O=C([C@@H]1C[C@H](Oc2ccc(F)cc2)CN1C1CC1)N1CCCN(C2CCC2)CC1 :: 55
CCOC(=O)N1C[C@@H](Oc2cccc(F)c2)C[C@@H]1C(=O)N1CCCN(C2CCC2)CC1 :: 16

Given O=C([C@H]1C[C@H](Oc2ccc(F)cc2)CN1C1CC1)N1CCCN(C2CCC2)CC1 , state its recorded Ki.
13

* * *

TARGET_DESC: human H3 receptor (Homo sapiens, UniProt Q9Y5N1)
ASSAY_PROCEDURE: H3 Receptor Binding (Human) Method 2, [125I]-iodoproxyfan competitive radioligand binding
Design: expressed in transfected cells
EXPERIMENTAL_CONTEXT: read-out: Human H3 Ki
pKi: −log10 of the molar value.
Think of 8 as a floor: if pKi stands on it or above, it is TRUE; beneath it, FALSE.

Is the recorded value of pKi equal to or greater than 8 for this molecule? N#Cc1ccc(O[C@@H]2CN[C@@H](C(=O)N3CCN(C4CCCC4)CC3)C2)cc1
FALSE

Dear colleague, could you confirm whether CC(C)(C)OC(=O)N1C[C@@H](Oc2ccc(C#N)cc2)C[C@@H]1C(=O)N1CCCN(C2CCC2)CC1 has pKi at or above 8?
TRUE

Is the recorded value of pKi equal to or greater than 8 for this molecule? CC(C)(C)OC(=O)N1C[C@H](Oc2ccc(Cl)cc2)C[C@@H]1C(=O)N1CCCN(C2CCC2)CC1
FALSE

Could you verify whether the entry CC(C)(C)OC(=O)N1CCC[C@]1(Cc1cccc(F)c1)C(=O)N1CCCN(C2CCC2)CC1 shows pKi of no less than 8?
FALSE

Record O=C([C@@H]1C[C@@H](Cc2ccsc2)CN1)N1CCCN(C2CCC2)CC1 ; criterion: pKi no lower than 8. Met?
FALSE

In plain terms: is recorded pKi at least 8 for CC(C)(C)OC(=O)N1C[C@@H](Oc2ccc(C#N)cc2)C[C@@H]1C(=O)N1CCCN(C2CCCC2)CC1 ?
TRUE

Quick check, pKi >= 8? CC(C)(C)OC(=O)N1CCC[C@]1(Cc1ccc(C(F)(F)F)cc1)C(=O)N1CCCN(C2CCC2)CC1
FALSE

Threshold query (pKi >= 8) on CC(C)(C)OC(=O)N1C[C@@H](Oc2cccc(Cl)c2)C[C@@H]1C(=O)N1CCCN(C2CCC2)CC1
TRUE

Reported pKi reaches at least 8 for CC(=O)N1C[C@@H](Oc2ccccn2)C[C@@H]1C(=O)N1CCCN(C2CCC2)CC1 ?
TRUE

Evaluate O=C([C@H]1C[C@H](OCc2cccc(F)c2)CN1)N1CCCN(C2CCC2)CC1 : pKi at minimum 8?
TRUE
